# Test system: HCT-116 colon
# Experiment Summary: NCI-60 one-dose screen, 48 h (100 = growth as untreated, 0 = no growth, -100 = all killed)
# Stated Conditions: 10 µM unless noted
About 83,000 compounds went through this panel and 20% of them were active in at least one assay; those are over-represented in the sample as a whole.

{"Molecule": "COc1ccc(N=Nc2c(N)nn3c(N)c(C#N)c(-c4ccccc4)nc23)cc1", "growth, %": 20.2}
{"Molecule": "Cc1ccc(C(=O)Nc2cc(-c3ccncc3)cc(C(F)(F)F)c2)cc1C#Cc1cnc2cccnn12", "growth, %": 23.4}
{"Molecule": "COc1cc(C=O)ccc1OC(=O)c1cc(-c2ccc(C)cc2)n(-c2ccc(S(C)(=O)=O)cc2)n1", "growth, %": 98.7}
{"Molecule": "COc1cc(CNC(=O)C[C@H](C)CCC=C(C)C)ccc1OCc1cn(-c2ccc(Cl)c(Cl)c2)nn1", "growth, %": 29.8}
{"Molecule": "NCCCCn1c(SCCc2c[nH]c3ccccc23)nnc1-c1ccc2ccccc2n1", "growth, %": -94.1}
{"Molecule": "O=S(=O)(c1nc(-c2ccc(Br)cc2)oc1-c1ccc(Cl)cc1)N1CCCC(O)C1 (stereo not drawn)", "growth, %": 42.5}
{"Molecule": "N#Cc1c(-c2ccc(F)cc2)nc(SCc2ccccc2)nc1N1CCNCC1", "growth, %": -96.9}
{"Molecule": "O=C(c1ccc(Cl)cc1)C1[C@H](c2ccccc2Cl)[C@@H](c2ccccc2)NC12C(=O)Nc1ccc(Cl)cc12 (stereo partly drawn)", "growth, %": -89.3}
{"Molecule": "CN1C(=O)C(O)(CC(=O)c2cc3ccccc3oc2=O)c2ccccc21 (stereo not drawn)", "growth, %": 92.7}
{"Molecule": "COc1ccc(/C=C/C(=O)c2ccc(S(=O)(=O)NCCNc3nc(N(C)C)nc(N4CCOCC4)n3)cc2)cc1", "growth, %": -9.23}
{"Molecule": "Fc1ccccc1CNc1nc(SCCN2CCOCC2)nc2c1cnn2CC(Cl)c1ccc(Br)cc1 (stereo not drawn)", "growth, %": 26.1}
{"Molecule": "COc1ccc(NC(=O)CSc2nnc(-c3ccc(-c4nc5ccccc5[nH]4)cc3)o2)cc1", "growth, %": 2.37}
{"Molecule": "COc1ccc(C2=Nc3c(N)nc(N)nc3NC(c3ccc(Oc4nc(Nc5ccc(F)cc5)nc(N(C)C)n4)c(OC)c3)C2)cc1 (stereo not drawn)", "growth, %": 44.2}
{"Molecule": "CCCCNC(=S)Nc1ccc(OCc2nc3ccc(Cl)cc3[nH]2)cc1", "growth, %": 11.2}
{"Molecule": "CS(=O)(=O)Nc1cc(-c2ccc3ncnc(Nc4ccc(OCc5cccnc5)c(Cl)c4)c3c2)cnc1Cl", "growth, %": -71.6}
{"Molecule": "O=C(CSc1nnc(-c2ccc(-c3nc4ccc(Cl)cc4[nH]3)cc2)o1)Nc1ccc(Br)cc1", "growth, %": 8.26}
{"Molecule": "Cc1cc(C(NC(=O)CCCCCNc2cccc3c2C(=O)N(C2CCC(=O)CC2=O)C3=O)c2cccc(N(C)C)c2)c(O)c2ncccc12 (stereo not drawn)", "growth, %": 13.8}
{"Molecule": "Cc1ccc(C2CC(c3ccc(S(=O)(=O)NCCNc4nc(N(C)C)nc(N5CCOCC5)n4)cc3)=Nc3c(N)nc(N)nc3N2)cc1 (stereo not drawn)", "growth, %": 38.7}

###

# Tested on: SN12C renal
# Experiment Summary: NCI-60 one-dose screen, 48 h (100 = growth as untreated, 0 = no growth, -100 = all killed)
# Stated Conditions: 10 µM unless noted
# Protocol: Growth inhibition of the SN12C human tumor cell line is measured as a screen for anti-cancer activity. Cells are grown in 96 well plates and exposed to the test compound for 48 hours. Compounds are tested at a single concentration, which is 10^-5 M for most compounds. The reported endpoint is percent growth (GI% or GIPRCNT), where numbers from 0 - 100% represent growth inhibition, and numbers from -100% - 0 represent cell death. For example, a value of 40 represents 60% growth inhibition. […]
This is part of a sample that, as a whole, favours compounds with a hit. Of some 83,000 tested, about 20% had one in any assay.
Catalogue of growth readings, one per entry.

{"Molecule": "CC(C)C[C@H](NC(=O)[C@@H]1CCCCCCCCCCC(=O)N[C@@H](CC(=O)N2CCC[C@@H]2C2CCCC2)C(=O)N1)B(O)O", "growth [%]": -88.9}
{"Molecule": "N#Cc1c(-c2ccc(F)cc2)nc(SCc2ccc(F)cc2)nc1N1CCNCC1", "growth [%]": -58.6}
{"Molecule": "COc1cc2cc(C(=O)N3C[C@@H](CCl)c4c3cc(OC(=O)N(CCC(=O)N3CCN(C)CC3)[C@H]3CCSSC3)c3ccccc43)[nH]c2c(OC)c1OC", "growth [%]": -10.3}
{"Molecule": "Nc1nnc(-c2cncc(Br)c2)c(-c2c[nH]c3ccc(Br)cc23)n1", "growth [%]": 57.6}
{"Molecule": "Cc1ccc(O)cc1Nc1nc(SCCN2CCOCC2)nc2c1cnn2CC(Cl)c1ccc(Br)cc1 (stereo unspecified)", "growth [%]": 20}
{"Molecule": "COc1ccc(C(=O)c2cc(C(C)=O)c3c(C)cc(C)cn23)cc1", "growth [%]": 55}
{"Molecule": "O=CNc1ccc(-n2cnc3cc(-c4ccc(O)cc4)ccc32)cc1", "growth [%]": 71.7}
{"Molecule": "CN1CCc2c(sc3ncnc(N/N=C/c4cccc(Cl)c4Cl)c23)C1", "growth [%]": 10.3}
{"Molecule": "CN1CCN(C(=O)CCN(C(=O)Oc2cc3c(c4ccccc24)[C@H](CCl)CN3C(=O)c2cc3cc(OCCCN4CCC4)ccc3[nH]2)[C@H]2CCSSC2)CC1", "growth [%]": 0.64}
{"Molecule": "O=c1c(-c2nc(-c3ccccc3)c(-c3ccccc3)[nH]2)coc2ccc(F)cc12", "growth [%]": 68.9}
{"Molecule": "S=C(Nc1ccccc1)Nc1ccc(OCc2nc3ccc(Cl)cc3[nH]2)cc1", "growth [%]": 78.8}
{"Molecule": "O=C(CSc1nnc(-c2ccc(-c3nc4ccc(Cl)cc4[nH]3)cc2)o1)Nc1ccccc1", "growth [%]": 4.03}
{"Molecule": "Cn1cc(-c2cc(N)n3nc(-c4c[nH]c5ccccc45)cc3n2)c2cc(Br)ccc21", "growth [%]": -78.8}
{"Molecule": "Cc1nc2sccn2c1-c1nnc(SCc2ccccc2)o1", "growth [%]": 86.6}
{"Molecule": "CC[C@]12C=CCN3CC[C@]4(C(=C(C(=O)OC)C1)Nc1cc(OC)c([C@@H]5[C@H]6O[C@H]6[C@@]6(CC)CC(C(=O)OC)=C7Nc8cc(OC)ccc8[C@@]78CCN5[C@@H]68)cc14)[C@@H]32", "growth [%]": 50}
{"Molecule": "COc1ccc(-c2nnc3c(/C=C/c4ccc(Br)cc4)nc4ccccc4n23)cc1", "growth [%]": -22.7}
{"Molecule": "COc1cccc(NC(=O)c2ccc(NC(=O)CCl)s2)c1", "growth [%]": -14.4}
{"Molecule": "Cc1cc(N=C(N)c2ccccc2)ccc1OCCCCCCCCn1ccnc1", "growth [%]": 12.7}
{"Molecule": "NCCCCn1c(SCCc2c[nH]c3ccccc23)nnc1-c1ccc2ccccc2n1", "growth [%]": -14.8}
{"Molecule": "CC(C)(C)C(=O)C1CC(C#N)=C2C=Cc3c(ccc4ccccc34)N21 (stereo unspecified)", "growth [%]": 92.4}
{"Molecule": "COc1ccc2[nH]cc(-c3cc4nc(-c5cn(C)c6ncc(Br)cc56)cc(N)n4n3)c2c1", "growth [%]": -83.2}
{"Molecule": "N#CC1=C(c2cccs2)Nc2c(c(-c3ccccc3)nn2-c2ccccc2)C12C(=O)Nc1ccc(Cl)cc12 (stereo unspecified)", "growth [%]": 33.8}
{"Molecule": "O=C(Nc1nc2ccc([N+](=O)[O-])cc2s1)Nc1ccc(Cl)cc1Cl", "growth [%]": 29.4}
{"Molecule": "CC1CCc2c(sc3nc(SCC(=O)c4cccc([N+](=O)[O-])c4)n(-c4ccccc4)c(=O)c23)C1 (stereo unspecified)", "growth [%]": 57.1}
{"Molecule": "O=C(NN1C(=O)/C(=C/C=C/c2ccc([N+](=O)[O-])o2)SC1=S)c1ccncc1", "growth [%]": -99.9}
{"Molecule": "COc1ccc2ccccc2c1/C=C1\\SC(=Nc2ccc(O)cc2)NC1=O", "growth [%]": 6.03}
{"Molecule": "Cc1ccc2c(c1)nc(-c1ccccc1)n2CC(=O)N=Nc1c(O)[nH]c2ccc(Cl)cc12", "growth [%]": -77.9}
{"Molecule": "COc1ccc([C@H]2C(C(=O)c3ccc(Cl)cc3)C3(N[C@@H]2c2ccccc2)C(=O)Nc2ccccc23)cc1 (stereo partly specified)", "growth [%]": 6.41}
{"Molecule": "N#Cc1ccc(C(=O)CSc2nc3c(c(Nc4ccc(S(N)(=O)=O)cc4)n2)CCC3)cc1", "growth [%]": 35.3}
{"Molecule": "CN1CCN(C(=O)Oc2cc3c(c4ccccc24)[C@H](CCl)CN3C(=O)c2cc3cc(OCCCN4CCC4)ccc3[nH]2)[C@H]2CSSC[C@H]21", "growth [%]": -7.03}
{"Molecule": "C/C(=N\\Nc1ccc(C(=O)O)cc1)c1cnn(-c2cc(=O)[nH]c3ccc(C)cc23)c1C", "growth [%]": 92.6}
{"Molecule": "O=C(N/N=C/c1ccc(Cl)cc1)c1ccc(OCc2nc3ccc(Cl)cc3[nH]2)cc1", "growth [%]": 30.4}
{"Molecule": "CN1C(=O)C2(C(C#N)=C(c3ccc(Cl)cc3)Nc3c2c(-c2ccccc2)nn3-c2ccccc2)c2ccccc21 (stereo unspecified)", "growth [%]": 86.3}
{"Molecule": "Cc1ccc(/C=C/C(=O)c2ccc(S(=O)(=O)NCCNc3nc(N(C)C)nc(N4CCOCC4)n3)cc2)cc1", "growth [%]": 86.4}
{"Molecule": "O=C(Nc1nc2ccc([N+](=O)[O-])cc2s1)Nc1ccccc1F", "growth [%]": 2.55}
{"Molecule": "CC1=NN(C2=NC(=O)C(CC(=O)Nc3ccccc3C(F)(F)F)S2)C(c2ccc(N(C)C)cc2)C1 (stereo unspecified)", "growth [%]": 46.5}
